Molecular target: T1, soluble Macaca fascicularis CTLA-4 expressed with a C-terminal myc-myc-polyhistidine tag (Macaca fascicularis)
T1 construct: soluble protein; also called mf CTLA-4.mmh; mfCTLA4.mmh
T1 chain: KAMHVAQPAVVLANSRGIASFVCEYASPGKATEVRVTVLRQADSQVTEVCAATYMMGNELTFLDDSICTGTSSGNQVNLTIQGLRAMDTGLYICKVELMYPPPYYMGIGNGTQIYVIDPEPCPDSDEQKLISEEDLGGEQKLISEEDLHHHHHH
Experiment: SPR, mAb capture, 25 C
ENDPOINT_NAME: Kd (nM)
Note: unit nM is implicit; provide only the numeric part.

Example binders with recorded Kd:
BINDER	UNITS_OF_MEASURE	Kd
H1H19264P (antibody, human IgG1, V domains shown) VH: QVQLVQSGAEVKKPGASVKVSCKASDYTFTSYGISWVRQAPGQGLEWMGWISVYNGNINYAQKFKGRVTMTTDTSTSTAYMELRSLRSDDMAVYYCARVTQFGMDVWGQGTTVTVSS VL: DIQMTQSPSSLSASVGDRVTITCRASQSISSNLNWYQQNPGKAPKLLIYTTSSLQGGVPSRFSGSGSGTDFTLTISSLQPEDFATYYCQQSFRTPFTFGPGTKVDIK	nM	20.3
H1H19313P (antibody, human IgG1, V domains shown) VH: QITLKESGPTLVKPTQTLTLTCTFSGFSLSTSGVGVGWIRQPPGVALEWLALIYWNDDKRFSPSLKSRLTITKDTSKNQVVLTMTNMDPVDTATYYCAHRRLGLYYFDYWGQGTLVTVSS VL: DIQLTQSPSFLSASVGDRVTITCWASQGISSYLAWYQQKPGKAPKLLIYAASTLQSGVPSRFSGSGSGTEFTLTISSLQPEDFATYYCQQVHIYPFTFGPGTKVDIK	nM	0.976

Please examine the following record next.
Give the reported Kd for this binder. H1H19274P (antibody, human IgG1, V domains shown) VH: QVQLQESGPGLVKPSETLSLTCTVSGGSINSYYWTWIRQPPGKGLEWIGYVYYSGSTTYNPSLKSRVTISVDTSKNQFFLNLNSVTAAETAVYYCARGTLGYYGMDVWGQGTTVTVSS VL: EIVLTQSPGTLSLSPGERATLSCRASQSFSNNYLAWYQQKPGQAPRLLIYGTSIRATGIPDRFSGSGSGTDFTLAISRLEPEDFAVYYCQQYGRSPLTFGGGTKVEIK
0.887

The measured values listed here are drawn from patent US20210040232A1.
